# Tested on: MS2 coat protein
# assay: apparent KD of MS2 coat protein; designed switch direction (-1 OFF switch, 1 ON switch): -1; higher = weaker reporter binding
# condition_details: input ligand: microRNA oligo, concentration not stated
endpoint_name: apparent KD of MS2 coat protein (nM)
Number only, in nM; omit the unit.

Please review the following examples before continuing.
AGCUGUGGCCGAGGAUAUCCACAUGAGGAUCACCCAUGUUGAUACGCCGUUAGGCGAUAUAGAAGGGAGAAGGCGGUCUCAGCA [Eli eng2 - 050] (Eterna round: R96, puzzle: Exclusion NG 2) :: 7.26
AGCUGUGGCCGAGGAUAUCUAUCCAAUAUAACCGAAAUAUAAUCGGACAUGAGGAUCACCCAUGUAGAGAAGGCGGUCUCAGCA [Eli eng2 - 093] (Eterna round: R96, puzzle: Exclusion NG 2) :: 15.3
CAUGGAUGUGAGCCGCAUUACAUGAGGAUCACCCAUGUCAACAAGCUUUUUGCUUGUCUUACGCGGCGGCACCAGAA [Getelexe] (Eterna round: R96, puzzle: Sensor v3, turn-off variant 1) :: 6.81
UUUAUAUAGUAAGGAUAUGUAUUAUUUUUUUCAACAGAAGGUACUGACAUGAGGAUCACCCAUGUUUUAGUGUGGGCAUGUAGU [JMF's solution 98] (Eterna round: R96, puzzle: Exclusion NG 1) :: 323

Now turn to the next sequence.
Record UAAUUAAAUGUAGGAUAUCUGCACGUGUAGUGCAGAGAAGGACAUGAGGAUCACCCAUGUAGAUCAAAUUAAAUUAAUUUAAUU [ENG1/5-D3] (Eterna round: R96, puzzle: Exclusion NG 1) / MS2 coat protein, apparent KD of MS2 coat protein recorded as 21.5

###

# Tested on: MS2 coat protein
# assay: apparent KD of MS2 coat protein; designed switch direction (-1 OFF switch, 1 ON switch): -1; higher = weaker reporter binding
# condition_details: input ligand: FMN 200 uM
So basically: apparent KD of MS2 coat protein at 100 nM or higher? That is TRUE. Lower than 100 nM? That is FALSE.

Query string: Does AAACUGUGAGGAUAUGCACGGGCCCUCUUAAUAAAACCAAAACAUGAGGAUCACCCAUGUAGAAGGCACACAUA [EX2 A.24] (Eterna round: R97, puzzle: Exclusion 2) have a reported apparent KD of MS2 coat protein of at least 100 nM?
Result string: FALSE

Query string: Assess whether reported apparent KD of MS2 coat protein for ACUUCACAUGAGGAUCACCCAUGUGAGGAUAUCGUCGAGGAUGUAAUGCCAUCCGUGACGAGAAGGCGCAUGGU [Exclusion 1 (Mod 2.1 solution 40 by Eternabot)] (Eterna round: R97, puzzle: Exclusion 1) sits at 100 nM or higher.
Result string: TRUE

Query string: Please check the record GCCAAUGACUGAGGAUAUGCUUAUAGACAUGAGGAUCACCCAUGUAAAUGGGACAUGUCAAACCAGCAGAAGGCAGGACCUGGC [Arused] (Eterna round: R96, puzzle: Exclusion NG 2) and state if its apparent KD of MS2 coat protein is at or above 100 nM.
Result string: FALSE

Query string: Assess whether reported apparent KD of MS2 coat protein for ACAAGCUUGUAAUGAUUGAACAUGAGGAUCACCCAUGUAAAUGGAAGAACCAAUUUGAUAAGAUAAACUCGUCUUAU [JR_STOV1_Sub005] (Eterna round: R97, puzzle: Sensor, turn-off variant 1) sits at 100 nM or higher.
Result string: FALSE
